Data origin: patent US9458137B2

# System: abl kinase
# test-description: abl kinase inhibition assay
# Format: biochemical
Collected % Inhibition @1 μM Abl values appear next to each entry.

{"molecule": "Cc1cc2c(F)c(Oc3nc(Nc4cc(C5CC5)[nH]n4)cc(N4CCN(c5cccnc5)CC4)n3)ccc2[nH]1", "tested-on": "abl kinase", "% Inhibition @1 μM Abl": "109%"}
{"molecule": "Cc1cc(Nc2cc(N3CCNCC3)nc(Oc3cc(F)c4[nH]c(C)cc4c3F)n2)n[nH]1", "tested-on": "abl kinase", "% Inhibition @1 μM Abl": "109%"}
{"molecule": "Cc1cc2c(F)c(Oc3nc(Nc4cc(C5CC5)[nH]n4)cc(N4CCN(CCF)CC4)n3)ccc2[nH]1", "tested-on": "abl kinase", "% Inhibition @1 μM Abl": "107%"}
{"molecule": "Cc1cc2c(F)c(Oc3nc(Nc4cc(C5CC5)[nH]n4)cc(N4CCC(F)CC4)n3)ccc2[nH]1", "tested-on": "abl kinase", "% Inhibition @1 μM Abl": "108%"}
{"molecule": "Cc1cc2c(F)c(Oc3nc(Nc4cc(C5CC5)[nH]n4)cc(N4CC(O)C4)n3)ccc2[nH]1", "tested-on": "abl kinase", "% Inhibition @1 μM Abl": "108%"}
{"molecule": "C/C=C/c1cc(Nc2cc(N3CCOCC3)nc(Oc3ccc4[nH]c(C)cc4c3F)n2)n[nH]1", "tested-on": "abl kinase", "% Inhibition @1 μM Abl": "112%"}
{"molecule": "C/C=C/c1cc(Nc2cc(N3CCOCC3)nc(Oc3cc(F)c4[nH]c(C)cc4c3F)n2)n[nH]1", "tested-on": "abl kinase", "% Inhibition @1 μM Abl": "112%"}
{"molecule": "C/C=C/c1cc(Nc2cc(N3CCC(O)C3)nc(Oc3cc(F)c4[nH]c(C)cc4c3F)n2)n[nH]1 (stereo not drawn)", "tested-on": "abl kinase", "% Inhibition @1 μM Abl": "111%"}
{"molecule": "C/C=C/c1cc(Nc2cc(N3CCC(OC)CC3)nc(Oc3cc(F)c4[nH]c(C)cc4c3F)n2)n[nH]1", "tested-on": "abl kinase", "% Inhibition @1 μM Abl": "110%"}
{"molecule": "C/C=C/c1cc(Nc2cc(N3CCC(N(CC)CC)C3)nc(Oc3ccc4[nH]c(C)cc4c3F)n2)n[nH]1 (stereo not drawn)", "tested-on": "abl kinase", "% Inhibition @1 μM Abl": "111%"}
{"molecule": "Cc1cc2c(F)c(Oc3nc(Nc4cc(C5CC5)[nH]n4)cc(N4CCOCC4)n3)ccc2[nH]1", "tested-on": "abl kinase", "% Inhibition @1 μM Abl": "112%"}
{"molecule": "COCCN1CCN(c2cc(Nc3cc(C4CC4)[nH]n3)nc(Oc3ccc4[nH]c(C)cc4c3F)n2)CC1", "tested-on": "abl kinase", "% Inhibition @1 μM Abl": "108%"}
{"molecule": "Cc1cc2c(F)c(Oc3nc(Nc4cc(C5CC5)[nH]n4)cc(N4CCC(N(C)C)C4)n3)ccc2[nH]1 (stereo not drawn)", "tested-on": "abl kinase", "% Inhibition @1 μM Abl": "108%"}
{"molecule": "Cc1cc2c(F)c(Oc3nc(Nc4cc(C5CC5)[nH]n4)cc(N4CCOCC4)n3)cc(F)c2[nH]1", "tested-on": "abl kinase", "% Inhibition @1 μM Abl": "103%"}
{"molecule": "C/C=C/c1cc(Nc2cc(N3CCC(O)CC3)nc(Oc3cc(F)c4[nH]c(C)cc4c3F)n2)n[nH]1", "tested-on": "abl kinase", "% Inhibition @1 μM Abl": "110%"}
